All figures here come from patent US20250092108A1.

Molecular target: T1, human CD25 (IL-2Rα) (human, UniProt P01589 22-213)
T1 chain: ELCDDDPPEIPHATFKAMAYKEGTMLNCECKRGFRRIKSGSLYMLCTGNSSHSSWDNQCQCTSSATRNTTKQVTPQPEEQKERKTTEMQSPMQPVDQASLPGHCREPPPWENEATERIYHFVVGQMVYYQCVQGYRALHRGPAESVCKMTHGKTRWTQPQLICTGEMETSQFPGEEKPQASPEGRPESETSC
Assay: Biacore; pH 7.4
// Kd lookup, one value per entry
Output spec: scalar in nM, unitless text.

14193 R38Q T41R C125S (protein) APTSSSTKKTQLQLEHLLLDLQMILNGINNYKNPKLTQMLRFKFYMPKKATELKHLQCLEEELKPLEEVLNLAQSKNFHLRPRDLISNINVIVLELKGSETTFMCEYADETATIVEFLNRWITFSQSIISTLT ... 458

Quick one: Kd for 14202 R38Q T41S C125S (protein) APTSSSTKKTQLQLEHLLLDLQMILNGINNYKNPKLTQMLSFKFYMPKKATELKHLQCLEEELKPLEEVLNLAQSKNFHLRPRDLISNINVIVLELKGSETTFMCEYADETATIVEFLNRWITFSQSIISTLT ? 1240

Next binder up: 14192 R38E T41K C125S (protein) APTSSSTKKTQLQLEHLLLDLQMILNGINNYKNPKLTEMLKFKFYMPKKATELKHLQCLEEELKPLEEVLNLAQSKNFHLRPRDLISNINVIVLELKGSETTFMCEYADETATIVEFLNRWITFSQSIISTLT 172

Next binder up: 14190 R38Q T41K C125S (protein) APTSSSTKKTQLQLEHLLLDLQMILNGINNYKNPKLTQMLKFKFYMPKKATELKHLQCLEEELKPLEEVLNLAQSKNFHLRPRDLISNINVIVLELKGSETTFMCEYADETATIVEFLNRWITFSQSIISTLT 98.3

Next binder up: 14191 R38Q T41Q C125S (protein) APTSSSTKKTQLQLEHLLLDLQMILNGINNYKNPKLTQMLQFKFYMPKKATELKHLQCLEEELKPLEEVLNLAQSKNFHLRPRDLISNINVIVLELKGSETTFMCEYADETATIVEFLNRWITFSQSIISTLT 196
